Each recorded value in this set is attributed to the METLIN SMRT retention time set (Domingo-Almenara et al. 2019).

protocolNotes: gradient 5% acetonitrile 3 min, to 50% in 2 min, to 85% in 15 min, held 3 min, 100 µL/min
measurementContext: column: Zorbax Extend-C18 2.1 x 50 mm; eluents: water / acetonitrile, 0.1% formic acid
valueType: RP-LC retention time
Write the quantity with the unit trailing the number.

Example cases with answers are listed next.
CCOC(=O)c1cccc(NC(=O)CN2C(=O)C(C)(C)c3ccccc32)c1 : 900 s
CCN1C(=O)CN(C(=O)C2CCCC2)CC12CCOCC2 : 651 s

Moving on to the next compound.
Q) Give the measured RP-LC retention time of CC(C)(C)NC(=O)N1CCC(CNC(=O)c2cccs2)CC1 .
A) 655 s

---

protocolNotes: gradient 5% acetonitrile 3 min, to 50% in 2 min, to 85% in 15 min, held 3 min, 100 µL/min
measurementContext: column: Zorbax Extend-C18 2.1 x 50 mm; eluents: water / acetonitrile, 0.1% formic acid
valueType: RP-LC retention time (s)
Write the value in s as a bare number.

As a guide, the following entries are already answered.
CCOc1ccc(CNC(=O)C2CCCN(c3nnc(C)c4c(C)n(-c5ccc(C)cc5)nc34)C2)cc1 (centres undefined) : 785
O=C(NCCc1ccccc1)C(=O)NCC1COc2ccccc2O1 (centres undefined) : 960
CCOC(=O)c1[nH]c(C)c(CN(CC2CCCO2)C(=O)c2ccc(OC)cc2)c1C (centres undefined) : 852
CCC(CC)C(=O)N1CCc2c(c(C(=O)N3CCCC(C(=O)Nc4ccccc4C)C3)nn2C)C1 (centres undefined) : 817
CCOc1ccc(C(=O)NC2CCN(c3cc(-c4ccccc4)[nH]n3)C2)cc1OCC (centres undefined) : 748
COc1ccc(-n2c(=O)c3sccc3n(Cc3nc(-c4ccccc4Cl)no3)c2=O)cc1 : 946

Q) // RP-LC retention time lookup, key: COc1ccc(N2CCN(C(=O)CN3CCN(Cc4cccc(Cl)c4)C3=O)CC2)cc1
A) 784

Q) Could you tell me which RP-LC retention time is on file for COc1ccc(OC)c(S(=O)(=O)N(C)C)c1 ?
A) 702

Q) Requested field: RP-LC retention time. Item: CCCCN1CCc2nc(N3CCN(c4ccccc4F)CC3)ncc2C1
A) 715

---

protocolNotes: gradient 5% acetonitrile 3 min, to 50% in 2 min, to 85% in 15 min, held 3 min, 100 µL/min
measurementContext: column: Zorbax Extend-C18 2.1 x 50 mm; eluents: water / acetonitrile, 0.1% formic acid
Each entry below lists one item and its recorded RP-LC retention time value.
Give the quantity in s, number only.

The following molecules have reported results that may help.
O=C(CCC1CCCN(C(=O)Nc2ccc(Cl)cc2)C1)NCc1ccccc1Cl (centres undefined) : 939
O=c1ccn(-c2cccc(F)c2)nc1-c1nc(-c2cccc(Cl)c2)no1 : 992
Cc1ccc(-c2nc3cnccn3c2NCCC(=O)NCc2ccc(C)o2)cc1 : 710

Now examine the next entry.
Q) Could you tell me which RP-LC retention time is on file for NC(=O)C1CCN(C(=O)NC2CC(=O)N(c3ccc(Cl)cc3)C2)CC1 (centres undefined) ?
A) 587

---

protocolNotes: gradient 5% acetonitrile 3 min, to 50% in 2 min, to 85% in 15 min, held 3 min, 100 µL/min
measurementContext: column: Zorbax Extend-C18 2.1 x 50 mm; eluents: water / acetonitrile, 0.1% formic acid
Reported RP-LC retention time by item:
# number only, unit s dropped from output

Solved cases (4 shown):
COc1ccccc1CNc1nccc(-n2ccc(C)n2)n1 : 805
CCC(=O)N1CCc2cc(N3CC(C(=O)Nc4ccc(OC)c(Cl)c4)CC3=O)ccc21 (stereo not drawn) : 779
Cc1sc(-n2cccc2)nc1C(=O)N1CCN(c2ccccn2)CC1 : 623
CCCc1nnsc1C(=O)NCC(c1cccs1)S(=O)(=O)c1ccc(C)cc1 (stereo not drawn) : 921

Q) Could you share which RP-LC retention time value was measured for Cc1ccc(-c2nc(Cn3cccc3C(=O)NC3CCCC3)no2)cc1 ?
A) 1050

Q) // RP-LC retention time lookup, key: CCOc1cccc(CNC(=O)c2c(O)c3cccnc3[nH]c2=O)c1
A) 969

Q) # RP-LC retention time lookup, item O=C(NCCc1ccccc1)NC1CCCN(c2cc(-c3ccncc3)[nH]n2)C1 (stereo not drawn)
A) 620

Q) Would you kindly share the measured RP-LC retention time for O=C(Cn1cnc2c(-c3ccc(F)cc3)csc2c1=O)N1CCCc2ccccc21 ?
A) 1020

---

protocolNotes: gradient 5% acetonitrile 3 min, to 50% in 2 min, to 85% in 15 min, held 3 min, 100 µL/min
measurementContext: column: Zorbax Extend-C18 2.1 x 50 mm; eluents: water / acetonitrile, 0.1% formic acid
valueType: RP-LC retention time (s)
Supply the numeric figure in s, leaving out any unit text.

CCCC(=O)Nc1sc2c(c1C(=O)Nc1ccccc1C)CCC2 : 1250
O=C(Cn1c(=O)c2nncn2c2ncccc21)NCc1ccc(Cl)cc1 : 671
CCOC(=O)c1ccc2nc(C(F)(F)F)nc(NCCc3ccc(OC)cc3)c2c1 : 1240
CCc1cc(=O)n(CC(=O)Nc2cc(C)ccc2C)c(N2CCOCC2)n1 : 747

Q) Item Cn1cccc1C(=O)N1CCC(COc2ccc(C(=O)N3CCCCC3)cc2)CC1 has what recorded RP-LC retention time?
A) 897

Q) Need RP-LC retention time, item COc1ccc(CNC(=O)c2ccc3[nH]c4c(c3c2)CN(C(C)=O)CC4)c(OC)c1
A) 680

Q) State the recorded RP-LC retention time for this entry: CCCNC(=O)c1nc2cccnc2n(C)c1=O
A) 647

Q) Can you share its RP-LC retention time? I mean this compound: CC1CCCCC12NCCN=C2NCc1ccc(F)cc1 (stereo not drawn)
A) 603

---

protocolNotes: gradient 5% acetonitrile 3 min, to 50% in 2 min, to 85% in 15 min, held 3 min, 100 µL/min
measurementContext: column: Zorbax Extend-C18 2.1 x 50 mm; eluents: water / acetonitrile, 0.1% formic acid
valueType: RP-LC retention time (s)
Reply numerically in s, unit not repeated.

Known results for compounds:
Nc1ccc(CCNc2ncnc3c2ncn3C2OC(CO)C(O)C2O)cc1 (stereo unspecified) : 540
COc1ccc(-c2nc3cccc(C)n3c2Nc2ccc(C)cc2)cc1 : 757
Cc1cc(C(F)(F)F)nn1CC(=O)N1CCc2nn(C)c(=O)n2CC1 : 659
COc1ccccc1N1CCN(C(=O)CN2C(=O)CC(c3cccs3)=Nc3ccccc32)CC1 : 898
Cn1nc(CO)c2c1CCN(C(=O)c1cc(-c3cccs3)[nH]n1)C2 : 602

Now look at this entry.
Q) RP-LC retention time for COc1cccc2c1OC1(C)CC2C(S(=O)(=O)c2ccc(C)c(C)c2)C(=O)N1C (stereo unspecified) ?
A) 931

---

protocolNotes: gradient 5% acetonitrile 3 min, to 50% in 2 min, to 85% in 15 min, held 3 min, 100 µL/min
measurementContext: column: Zorbax Extend-C18 2.1 x 50 mm; eluents: water / acetonitrile, 0.1% formic acid
RP-LC retention time by entry:
Give the number; s is assumed, so skip it.

Look over these answered cases.
COc1ccc(N2CC(c3noc(-c4cccc(F)c4)n3)CC2=O)cc1OC (configuration not stated) : 847
CCc1cccc(NS(=O)(=O)c2ccc3c(c2)CCCC(=O)N3)c1 : 780
Cc1nc2ccccc2c(=O)n1Cc1noc(-c2ccccc2Br)n1 : 871
O=C(CSc1nnc(-c2cccnc2)o1)c1ccc(OC(F)F)cc1 : 780
CC(C)NC(=O)c1ccc2cnn(C)c2c1 : 667
O=C(CN1C(=O)CCCc2cc(S(=O)(=O)N3CCCCC3)ccc21)NCc1ccccc1 : 847
Cc1c(Cl)cccc1N1C(=O)CN(S(C)(=O)=O)CC1(C)C(=O)NC1CCCCCCC1 (configuration not stated) : 1010
CCc1cccc(C)c1Nc1c(-c2ccc(N3CCOCC3)cc2)nc2cnccn12 : 817
CC(C)NC(=O)CSc1ccc(N2CCN(c3ccccc3)CC2)nn1 : 708
CCc1nn2c(CNS(=O)(=O)c3cc(F)ccc3F)c(-c3ccccc3)nc2s1 : 929

Q) Can you share its RP-LC retention time? I mean this compound: CCc1nc2cc(N3CCC(C(=O)NCc4ccc(F)cc4F)CC3)cnc2nc1CC
A) 852

Q) Given the entry CC(C)CN1CCN(C(=O)COc2ccc(NC(=O)C3CC3)cn2)CC1 , report its measured RP-LC retention time.
A) 570

---

Below, each entry is listed alongside its reported RP-LC retention time.
protocolNotes: gradient 5% acetonitrile 3 min, to 50% in 2 min, to 85% in 15 min, held 3 min, 100 µL/min
measurementContext: column: Zorbax Extend-C18 2.1 x 50 mm; eluents: water / acetonitrile, 0.1% formic acid
Please give a number only; it is taken to be in s.

Below are worked cases with known answers.
Cc1ccc2c(c1)N(C(=O)CCC(=O)NCCCN1CCC(N3CCCCC3)CC1)CC(C)O2 (stereo not drawn) : 576
O=C(c1ccoc1)N1CCCC1c1nc(-c2cccc(C(F)(F)F)c2)no1 (stereo not drawn) : 996
Cc1cccc(CNC(=O)Cn2c(C)cc(-c3nnc(-c4ccccc4)o3)c2C)c1 : 921
CCc1ccc(NC(=O)C2CCc3nc(N(CC)CC)ncc3C2)cc1 (stereo not drawn) : 799
CCCc1ccc(S(=O)(=O)Nc2ccc3nc(S(=O)(=O)CC)sc3c2)cc1 : 1020
CC1CCCCN1CCNC(=O)c1cc(S(=O)(=O)N2CCCC2)ccc1Cl (stereo not drawn) : 617

Q) Give its RP-LC retention time value. Item: COc1cc(CN(C(=O)c2ccc(OC(C)C)cc2)C2CCS(=O)(=O)C2)cc(OC)c1OC (stereo not drawn)
A) 868

Q) What does the data say about its RP-LC retention time? Entry: Cc1ccccc1CNC(=O)CN1C(=O)CCCc2cc(S(=O)(=O)N3CCCCC3)ccc21
A) 911

Q) Please look up its RP-LC retention time: Cc1nnc2cc(N3CCN(C(=O)Nc4cccc(Cl)c4)CC3)cnn12
A) 596

Q) What does the record list as RP-LC retention time for CCOC(=O)c1c(C)c(CCC(=O)NCc2ccc(C)o2)n(C)c1C ?
A) 842
